Observed pIC50 values for Somatostatin receptor type 3 (Mus musculus) are listed in what follows.
Please treat pIC50 as minus the base-10 logarithm of the molar concentration.

>>> df
                                test_smiles                              study_system  metric  endpoint_result
0  Cn1cc(C2(c3cnn(C)c3)N[C@@H](c3nc(-c4ccc(F)cc4)c[nH]3)Cc3c2[nH]c2ccccc32)cn1  Somatostatin receptor type 3 (Mus musculus)   pIC50             9.32
1  Cc1nc(C2(c3noc(C)n3)N[C@@H](c3nc(-c4ccc(F)cc4)c[nH]3)Cc3c2[nH]c2ccccc32)no1  Somatostatin receptor type 3 (Mus musculus)   pIC50             8.89
2  Cn1cc([C@H]2N[C@@H](c3nc(-c4ccc(F)cc4)c[nH]3)Cc3c2[nH]c2ccccc32)cn1  Somatostatin receptor type 3 (Mus musculus)   pIC50             8.36

What measured pIC50 is associated with Cn1cc([C@@H]2N[C@@H](c3nc(-c4ccc(F)cc4)c[nH]3)Cc3c2[nH]c2ccccc32)cn1 on Somatostatin receptor type 3 (Mus musculus)?
7.59

Further, for Fc1ccc(-c2c[nH]c([C@H]3Cc4c([nH]c5ccccc45)[C@@H](C4CCOCC4)N3)n2)cc1 ?
7.59

====

Protocol notes: Volume of distribution at steady state in dog at 1 mg/kg, iv and 2 mg/kg, po
Reported conditions: in vivo
Metric: Vd (L/kg)
Note: unit L/kg is implicit; provide only the numeric part.

What Vd value was documented for this molecule, Cc1nc([C@@H]2N[C@@H](c3nc(-c4ccc(F)cc4)c[nH]3)Cc3c2[nH]c2ccccc32)no1 ?
0.87

====

Protocol notes: Half life in dog at 1 mg/kg, iv
Reported conditions: in vivo
Metric: half-life (h)
Note: unit h is implicit; provide only the numeric part.

What half-life value was documented for this compound, Cc1nc([C@@H]2N[C@@H](c3nc(-c4ccc(F)cc4)c[nH]3)Cc3c2[nH]c2ccccc32)no1 ?
6.69

====

Study system: Somatostatin receptor type 3 (Homo sapiens)
Sequence (P32745 whole entry): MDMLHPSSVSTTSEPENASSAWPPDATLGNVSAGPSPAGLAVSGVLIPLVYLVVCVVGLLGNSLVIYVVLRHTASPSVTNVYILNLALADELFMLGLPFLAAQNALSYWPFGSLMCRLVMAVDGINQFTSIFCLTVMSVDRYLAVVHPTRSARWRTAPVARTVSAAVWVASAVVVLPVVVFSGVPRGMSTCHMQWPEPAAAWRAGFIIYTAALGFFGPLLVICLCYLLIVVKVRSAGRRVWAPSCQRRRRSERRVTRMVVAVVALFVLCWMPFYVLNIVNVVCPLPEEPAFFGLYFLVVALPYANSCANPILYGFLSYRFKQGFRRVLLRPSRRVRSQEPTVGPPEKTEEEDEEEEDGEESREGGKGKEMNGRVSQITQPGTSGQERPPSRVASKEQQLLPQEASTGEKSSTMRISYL
Reported IC50 values for a set of compounds

Some compounds with recorded IC50:
>>> print(df.to_string())
                                test_smiles  endpoint_result
0  c1ccc(-c2c[nH]c([C@H]3Cc4c([nH]c5ccccc45)[C@@H](C4CCOCC4)N3)n2)cc1            11 nM
1  Fc1ccc(-c2c[nH]c([C@H]3Cc4c([nH]c5ccccc45)C(c4ccccc4)(c4ccccc4)N3)n2)cc1           7.3 nM

What measured IC50 is associated with Cn1cc([C@H]2N[C@@H](c3nc(-c4ccc(F)cc4)c[nH]3)Cc3c2[nH]c2ccccc32)cn1 on Somatostatin receptor type 3 (Homo sapiens)?
9.3 nM

====

Study system: Somatostatin receptor type 3 (Mus musculus)
Sequence (P30935 whole entry): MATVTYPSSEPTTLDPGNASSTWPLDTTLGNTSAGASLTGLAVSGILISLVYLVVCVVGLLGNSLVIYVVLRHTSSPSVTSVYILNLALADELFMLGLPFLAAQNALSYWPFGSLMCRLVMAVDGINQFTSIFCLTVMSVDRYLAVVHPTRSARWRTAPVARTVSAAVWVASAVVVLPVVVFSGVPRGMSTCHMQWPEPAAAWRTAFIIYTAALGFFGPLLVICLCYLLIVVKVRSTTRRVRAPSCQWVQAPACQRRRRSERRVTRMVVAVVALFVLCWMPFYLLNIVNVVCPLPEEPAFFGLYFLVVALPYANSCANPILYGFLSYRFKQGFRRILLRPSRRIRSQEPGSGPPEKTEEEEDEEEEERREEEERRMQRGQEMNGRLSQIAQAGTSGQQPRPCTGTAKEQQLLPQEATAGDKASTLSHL
Metric: pIC50
Please treat pIC50 as minus the base-10 logarithm of the molar concentration.

Some compounds with recorded pIC50:
>>> df
                                test_smiles  endpoint_result
0  Cc1nc([C@H]2N[C@@H](c3nc(-c4ccc(F)cc4)c[nH]3)Cc3c2[nH]c2ccccc32)no1             7.74
1  Cc1nc([C@@H]2N[C@@H](c3nc(-c4ccc(F)cc4)c[nH]3)Cc3c2[nH]c2ccccc32)no1             7.54

Field: next compound
What measured pIC50 is associated with Fc1ccc(-c2c[nH]c([C@H]3Cc4c([nH]c5ccccc45)C(c4ccccc4)(c4ccccc4)N3)n2)cc1 on Somatostatin receptor type 3 (Mus musculus)?
8.62

Data origin: ChEMBL document CHEMBL2203114
